This collection of values is drawn from the supplement of paper PMC10126150.

- System: ATP;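 further: ATP exposure 15 min at 22 °C before imaging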
- experimentalDetails: switch fluorescence ratio, 500 uM ATP over buffer (Cy3 cluster intensity, sum of 5 cycles each) (fold (ratio)); higher = stronger signal-on switching upon ATP binding; sequences stand for … in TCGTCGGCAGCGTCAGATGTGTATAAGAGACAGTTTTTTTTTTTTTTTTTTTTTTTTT…TC
- conditionParameters: aptamer strand: ATP DNA aptamer (quencher-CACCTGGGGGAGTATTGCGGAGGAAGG + anchor), 100 nM annealed; ATP concentration: 500 uM
assayEndpoint: switch fluorescence ratio
Keep the answer to the number alone.

Past entries and their recorded results:
residues | readoutNumber
TAAAATAGTC | 1.02
ACGAGGCCGG | 0.952
GAGGAAGTTT | 1
TAGTACTTTA | 1.05
TTATCGGTGT | 0.968
GCAAGATGGG | 0.983
TTGCACGGTC | 1.03
GGGGGCCCGT | 1.46

[in] Quick check: switch fluorescence ratio of AGCAGACGGC ?
[out] 1.03

[in] Follow-up item: GTTTGGTAGT
[out] 0.979

====

- Tested on: ATP;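 further: ATP exposure 15 min at 22 °C before imaging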
- experimentalDetails: switch fluorescence ratio, 500 uM ATP over buffer (Cy3 cluster intensity, sum of 5 cycles each) (fold (ratio)); higher = stronger signal-on switching upon ATP binding; sequences stand for … in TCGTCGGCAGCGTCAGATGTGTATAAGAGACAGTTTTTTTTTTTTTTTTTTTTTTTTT…TC
- conditionParameters: aptamer strand: ATP DNA aptamer (quencher-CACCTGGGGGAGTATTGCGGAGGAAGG + anchor), 100 nM annealed; ATP concentration: 500 uM
In this section we review reported switch fluorescence ratio values for a set of sequences.
Keep the answer to the number alone.

residues | testTarget | readoutNumber
CGCCCTCAAG | ATP | 1.03

[in] Quick check: switch fluorescence ratio of TAGCTGGGGA ?
[out] 1.01

[in] Follow-up item: AGTCTAAGGG
[out] 0.993

[in] Follow-up item: GGGGTGGGTC
[out] 0.974

[in] Follow-up item: GAGGGGGCTC
[out] 1.04

[in] Follow-up item: ATGAGCATTC
[out] 1.18

====

- Tested on: ATP;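 further: ATP exposure 15 min at 22 °C before imaging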
- experimentalDetails: switch fluorescence ratio, 500 uM ATP over buffer (Cy3 cluster intensity, sum of 5 cycles each) (fold (ratio)); higher = stronger signal-on switching upon ATP binding; sequences stand for … in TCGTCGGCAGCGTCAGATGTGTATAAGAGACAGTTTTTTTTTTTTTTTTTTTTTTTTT…TC
- conditionParameters: aptamer strand: ATP DNA aptamer (quencher-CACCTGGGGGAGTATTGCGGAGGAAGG + anchor), 100 nM annealed; ATP concentration: 500 uM
In this section we review reported switch fluorescence ratio values for a set of sequences.
Keep the answer to the number alone.

Past entries and their recorded results:
residues | switch fluorescence ratio
GCGTTAGCGC | 0.968
GATATTGTAG | 0.986
GTTTTAGTGT | 0.987
CTCCGTTAGT | 3.1
CAGGCGTGTG | 0.995

[in] Quick check: switch fluorescence ratio of TTAAGCCCAT ?
[out] 1

[in] Follow-up item: TTGGCGGGAT
[out] 1.03

[in] Follow-up item: TTTCAAAACA
[out] 1.05

[in] Follow-up item: CGGCGTTCCG
[out] 1

[in] Follow-up item: TGTCGTTATT
[out] 0.955

[in] Follow-up item: TACACGAAAA
[out] 1.13

====

- System: ATP;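 further: ATP exposure 15 min at 22 °C before imaging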
- experimentalDetails: switch fluorescence ratio, 500 uM ATP over buffer (Cy3 cluster intensity, sum of 5 cycles each) (fold (ratio)); higher = stronger signal-on switching upon ATP binding; sequences stand for … in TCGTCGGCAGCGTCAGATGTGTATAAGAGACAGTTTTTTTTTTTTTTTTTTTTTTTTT…TC
- conditionParameters: aptamer strand: ATP DNA aptamer (quencher-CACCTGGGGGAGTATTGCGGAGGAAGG + anchor), 100 nM annealed; ATP concentration: 500 uM
assayEndpoint: switch fluorescence ratio

residues | switch fluorescence ratio
GGTCTAAGTG | 0.982
AGTTAGCAAT | 2.45

Could you now look at the following sequence, please?
[in] Quick check: switch fluorescence ratio of TTATCGAGGG ?
[out] 0.989

====

- Tested on: ATP;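 further: ATP exposure 15 min at 22 °C before imaging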
- experimentalDetails: switch fluorescence ratio, 500 uM ATP over buffer (Cy3 cluster intensity, sum of 5 cycles each) (fold (ratio)); higher = stronger signal-on switching upon ATP binding; sequences stand for … in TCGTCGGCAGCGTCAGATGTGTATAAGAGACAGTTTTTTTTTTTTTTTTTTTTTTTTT…TC
- conditionParameters: aptamer strand: ATP DNA aptamer (quencher-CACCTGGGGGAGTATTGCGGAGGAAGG + anchor), 100 nM annealed; ATP concentration: 500 uM
In this section we review reported switch fluorescence ratio values for a set of sequences.
Keep the answer to the number alone.

residues | switch fluorescence ratio
CAGTAGAGGG | 0.977
TTGAATGGTT | 0.994
GACCTTTGTT | 1.01
GGAATTCGGG | 1.01
ATGTTTTGAA | 0.979

Could you now look at the following sequence, please?
[in] Quick check: switch fluorescence ratio of CCTTTCGACA ?
[out] 2.08

====

In this section we review reported switch fluorescence ratio values for a set of sequences.
- System: ATP;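 further: ATP exposure 15 min at 22 °C before imaging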
- experimentalDetails: switch fluorescence ratio, 500 uM ATP over buffer (Cy3 cluster intensity, sum of 5 cycles each) (fold (ratio)); higher = stronger signal-on switching upon ATP binding; sequences stand for … in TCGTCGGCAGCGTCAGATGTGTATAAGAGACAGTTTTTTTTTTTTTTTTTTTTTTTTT…TC
- conditionParameters: aptamer strand: ATP DNA aptamer (quencher-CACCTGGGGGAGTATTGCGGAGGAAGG + anchor), 100 nM annealed; ATP concentration: 500 uM
Keep the answer to the number alone.

Past entries and their recorded results:
residues | switch fluorescence ratio
TAAAAAGTAT | 1
GGGTAAGAAG | 0.971
CGGAAGCATT | 1.44
GTTTGCCCTT | 1.06
TGGCATAGGT | 1.02

[in] Find the measured switch fluorescence ratio: item AACAAGGGGG , target or system ATP.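 Further: ATP exposure 15 min at 22 °C before imaging.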
[out] 1.01

[in] Follow-up item: GGGGTCCCAG
[out] 0.971

====

- Tested on: ATP;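 further: ATP exposure 15 min at 22 °C before imaging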
- experimentalDetails: switch fluorescence ratio, 500 uM ATP over buffer (Cy3 cluster intensity, sum of 5 cycles each) (fold (ratio)); higher = stronger signal-on switching upon ATP binding; sequences stand for … in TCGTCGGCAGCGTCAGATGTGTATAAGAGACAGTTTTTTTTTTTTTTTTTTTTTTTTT…TC
- conditionParameters: aptamer strand: ATP DNA aptamer (quencher-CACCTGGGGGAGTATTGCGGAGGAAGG + anchor), 100 nM annealed; ATP concentration: 500 uM
assayEndpoint: switch fluorescence ratio
Keep the answer to the number alone.

residues | switch fluorescence ratio
TCGGCCACAG | 1.05

Could you now look at the following sequence, please?
[in] Quick check: switch fluorescence ratio of GCATTCTCGT ?
[out] 1.03

====

- Tested on: ATP;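 further: ATP exposure 15 min at 22 °C before imaging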
- experimentalDetails: switch fluorescence ratio, 500 uM ATP over buffer (Cy3 cluster intensity, sum of 5 cycles each) (fold (ratio)); higher = stronger signal-on switching upon ATP binding; sequences stand for … in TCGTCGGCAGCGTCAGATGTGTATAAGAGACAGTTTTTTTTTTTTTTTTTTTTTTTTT…TC
- conditionParameters: aptamer strand: ATP DNA aptamer (quencher-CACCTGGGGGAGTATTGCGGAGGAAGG + anchor), 100 nM annealed; ATP concentration: 500 uM
assayEndpoint: switch fluorescence ratio
Keep the answer to the number alone.

residues | readoutNumber
GGTGTATTGG | 0.991
ATTTTAGGGA | 0.989
CGGGCTTGTG | 1
GGTTGAAGGT | 1
TTTGGTTTTC | 1.02
GATATTTTGA | 1.02
TGATATCTTG | 0.986
TTGGTATATT | 1.02
ATTAGGGACT | 0.992
TACAACGTGG | 0.991

[in] Quick check: switch fluorescence ratio of GGTTTCTAAG ?
[out] 1.01

[in] Follow-up item: GTGGATTCAC
[out] 0.98

[in] Follow-up item: TGAAGATGGG
[out] 1

====

- Test system: ATP;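 further: ATP exposure 15 min at 22 °C before imaging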
- experimentalDetails: switch fluorescence ratio, 500 uM ATP over buffer (Cy3 cluster intensity, sum of 5 cycles each) (fold (ratio)); higher = stronger signal-on switching upon ATP binding; sequences stand for … in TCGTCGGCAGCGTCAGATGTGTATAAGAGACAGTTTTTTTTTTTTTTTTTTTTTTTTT…TC
- conditionParameters: aptamer strand: ATP DNA aptamer (quencher-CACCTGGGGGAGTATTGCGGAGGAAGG + anchor), 100 nM annealed; ATP concentration: 500 uM
assayEndpoint: switch fluorescence ratio
Keep the answer to the number alone.

[in] Quick check: switch fluorescence ratio of CTAGTAGGGG ?
[out] 0.984

[in] Follow-up item: CGGGGGGGCT
[out] 0.997

[in] Follow-up item: GCGGGCAGGA
[out] 1.02

[in] Follow-up item: TCGCCCGCGA
[out] 1.51

[in] Follow-up item: GAAGGAGGGG
[out] 1.06

[in] Follow-up item: TAATGGTTGA
[out] 1.02

[in] Follow-up item: TCATAATAGC
[out] 0.977
